- Read-out: DNA damage-inducible transcript 3 (DDIT3), DDIT3 (gene 1649)
- TEST METHOD NOTES: LTEA_HepaRG_DDIT3: Life Technologies and Expression Analysis (LTEA) Assay for DNA damage-inducible transcript 3 (DDIT3) using HepaRG (AID 2283488)
- DETAILS: mRNA level, 48 h; actives raise or lower the signal
Active and inactive are the calls of the source. The calls were made as follows: active = hit-call score of the fitted dose curve at least 0.9, where 1 is the maximum; inactive = score below 0.9.
Outcomes you can answer with include only these: active, inactive

{"columns": ["COMPOUND", "QUALITATIVE LABEL"],
 "data": [
  ["FC(F)(F)C(F)(F)C(F)(F)C(F)(F)C(F)(F)C(F)(F)CCI", "inactive"],
  ["CC(=O)C(C)=CC1C(C)=CCCC1(C)C (stereo not given)", "inactive"],
  ["CCOC(=O)C(C)(C)Oc1ccc(Cl)cc1", "inactive"]
]}

Could you please tell me the result logged for `C1CCC(SSC2CCCCC2)CC1` in this assay?
inactive

Could you please tell me the result logged for `COc1ccc(S(=O)(=O)N2C(=O)[C@@](c3ccccc3OC)(N3C[C@H](O)C[C@H]3C(=O)N(C)C)c3cc(Cl)ccc32)c(OC)c1` in this assay?
active

Could you please tell me the result logged for `COc1cc(-c2nc(NC(=O)c3cc4cc(C)cc(C)c4n3CC(=O)O)sc2CCC2CCCCC2)c(OC)cc1Cl` in this assay?
active

Could you please tell me the result logged for CCCCC(CC)COC(=O)CC(C(=O)OCC(CC)CCCC)S(=O)(=O)O (stereo not given) in this assay?
active

Could you please tell me the result logged for `Nc1ccc2c(c1)C(=O)c1ccccc1C2=O` in this assay?
active

Could you please tell me the result logged for `CC1=C(/C=C/C(C)=C/C=C/C(C)=C/CO)C(C)(C)CCC1` in this assay?
inactive

====

- Read-out: Tumor necrosis factor receptor superfamily member 6 (Homo sapiens) (UniProt P25445)
- TEST METHOD NOTES: LTEA_HepaRG_FAS: Life Technologies and Expression Analysis (LTEA) Assay for Fas cell surface death receptor (FAS) using HepaRG (AID 2283447)
- DETAILS: mRNA level, 48 h; actives raise or lower the signal
Activity calls are given as the source filed them. The calls were made as follows: active = hit-call score of the fitted dose curve at least 0.9, where 1 is the maximum; inactive = score below 0.9.
Outcomes you can answer with include only these: label 1 for active, label 0 for inactive

Answered cases to consult:
{"columns": ["COMPOUND", "QUALITATIVE LABEL"],
 "data": [
  ["CC1(C)CC(N=C=O)CC(C)(CN=C=O)C1 (stereo not given)", "label 0"],
  ["CCCCOC(=O)CCCCCCCCC(=O)OCCCC", "label 0"],
  ["COCCOC[C@H](CC1(C(=O)NC2CCC(C(=O)O)CC2)CCCC1)C(=O)Oc1ccc2c(c1)CCC2 (stereo not given in full)", "label 0"]
]}

Could you please tell me the result logged for `COc1ccc(S(=O)(=O)N2C(=O)[C@@](c3ccccc3OC)(N3C[C@H](O)C[C@H]3C(=O)N(C)C)c3cc(Cl)ccc32)c(OC)c1` in this assay?
label 0

Could you please tell me the result logged for `COCCOCCOC` in this assay?
label 1

Could you please tell me the result logged for `Cc1ccc(C)c(C)c1` in this assay?
label 0

Could you please tell me the result logged for `CC1(C)NC(=O)NC1=O` in this assay?
label 0

Could you please tell me the result logged for `Nc1ccc2c(c1)C(=O)c1ccccc1C2=O` in this assay?
label 0

Could you please tell me the result logged for `Nc1nc(N)c2nc(CNc3ccc(C(=O)N[C@@H](CCC(=O)O)C(=O)O)cc3)cnc2n1` in this assay?
label 0

Could you please tell me the result logged for `Cc1nc(C)nc(N2C[C@@H](C)N(c3ccnc([C@@H](C)O)n3)[C@@H](C)C2)n1` in this assay?
label 0

Could you please tell me the result logged for `CN1CCCC1=O` in this assay?
label 0

Could you please tell me the result logged for `CCCCCCCCCCCC(=O)OC` in this assay?
label 0

Could you please tell me the result logged for `Cc1ccc(Cl)cc1` in this assay?
label 0

Could you please tell me the result logged for `Oc1ccc2c(c1)OC[C@@H](N1CCC(O)(c3ccc(F)cc3)CC1)[C@H]2O` in this assay?
label 0

====

- TEST METHOD NOTES: Tanguay_ZF_120hpf_OTIC_legacy: (Legacy) Oregon State University Tanguay Lab 120 Hour Post-fertilization zebrafish Assay for Otic Vesicle Malformation (AID 2283639)
Records with an inconclusive call do not appear. Activity calls are given as the source filed them. How the source made its calls: active means hit-call score of the fitted dose curve at least 0.9, where 1 is the maximum; inconclusive means response in the unintended direction; inactive means score below 0.9.
Outcomes you can answer with include only these: True = active, False = inactive

Answered cases to consult:
{"columns": ["COMPOUND", "QUALITATIVE LABEL"],
 "data": [
  ["CNC(=O)[C@H]1O[C@@H](n2cnc3c(NCc4cc(Cl)ccc4OCc4cc(C)no4)ncnc32)[C@H](O)[C@@H]1N", "False"],
  ["COc1cc(S(=O)(=O)O)c(C)cc1N=Nc1c(O)ccc2cc(S(=O)(=O)O)ccc12", "False"],
  ["O=c1c(O)c(-c2ccc(O)c(O)c2)oc2cc(O)cc(O)c12", "False"],
  ["CCOc1ccc2c(c1)C(C)=CC(C)(C)N2", "False"]
]}

Could you please tell me the result logged for CCCCC(CC)COC(=O)CC(C(=O)OCC(CC)CCCC)S(=O)(=O)O (stereo unspecified) in this assay?
False

Could you please tell me the result logged for `Cc1ccc(Cl)cc1` in this assay?
False

Could you please tell me the result logged for `COc1ccc2c(c1)c(CC(=O)O)c(C)n2C(=O)c1ccc(Cl)cc1` in this assay?
False

Could you please tell me the result logged for `COc1cc(-c2nc(NC(=O)c3cc4cc(C)cc(C)c4n3CC(=O)O)sc2CCC2CCCCC2)c(OC)cc1Cl` in this assay?
False

Could you please tell me the result logged for `Cc1ccc(C(C)C)c(O)c1` in this assay?
False

Could you please tell me the result logged for `C=CCOC(=O)c1ccccc1C(=O)OCC=C` in this assay?
False

Could you please tell me the result logged for `O=C(OCCCCCOC(=O)c1ccccc1)c1ccccc1` in this assay?
False

Could you please tell me the result logged for `Cc1ccccc1Cl` in this assay?
False

Could you please tell me the result logged for `CC(C)(C)c1cc(O)c(C(C)(C)C)cc1O` in this assay?
False

Could you please tell me the result logged for `CCCCCCCC=O` in this assay?
False

Could you please tell me the result logged for `COc1cc(C=O)ccc1O` in this assay?
True

Could you please tell me the result logged for `CCCCN(CCCC)CCCC` in this assay?
False

Could you please tell me the result logged for `CN1CCCC1=O` in this assay?
False

Could you please tell me the result logged for `O=C(N[C@@H](Cc1ccccc1)[C@@H](O)C(=O)N1C[C@@H](O)[C@@H](O)C1)c1cc2cc(Cl)ccc2[nH]1` in this assay?
False

====

- Read-out: Human Leukocyte Antigen - DR isotype (HLADR), HLA-DRA (gene 3122)
- TEST METHOD NOTES: BSK_BE3C_HLADR: BioMAP Diversity Plus: BE3C Assay for Human Leukocyte Antigen - DR isotype (HLADR) Biomarker Activity (AID 2283032)
- DETAILS: primary human bronchial epithelial cells; actives raise or lower the signal
Activity calls are given as the source filed them. How the source made its calls: active means hit-call score of the fitted dose curve at least 0.9, where 1 is the maximum; inactive means score below 0.9.
Outcomes you can answer with include only these: t for active, f for inactive

Answered cases to consult:
{"columns": ["COMPOUND", "QUALITATIVE LABEL"],
 "data": [
  ["O=C(OCCCCCOC(=O)c1ccccc1)c1ccccc1", "f"],
  ["CN1CCCC1=O", "f"],
  ["Nc1ccc(S(=O)(=O)c2ccc(N)cc2)cc1", "f"],
  ["Cc1nc(-c2ccc3c(c2)CCN(CCC2CCC(NC(=O)/C=C/c4ccc(F)cc4)CC2)CC3)no1 (configuration not stated)", "t"]
]}

Could you please tell me the result logged for CC(=O)C(C)=CC1C(C)=CCCC1(C)C (configuration not stated) in this assay?
f

Could you please tell me the result logged for `C[Si]1(C)O[Si](C)(C)O[Si](C)(C)O[Si](C)(C)O1` in this assay?
f

Could you please tell me the result logged for `CCCCCCCC=O` in this assay?
f

====

- Read-out: ATP-citrate lyase (ACLY), ACLY (gene 47)
- TEST METHOD NOTES: LTEA_HepaRG_ACLY: Life Technologies and Expression Analysis (LTEA) Assay for ATP-citrate lyase (ACLY) using HepaRG (AID 2283466)
- DETAILS: mRNA level, 48 h; actives raise or lower the signal
Active and inactive are the calls of the source. The calls were made as follows: active = hit-call score of the fitted dose curve at least 0.9, where 1 is the maximum; inactive = score below 0.9.
Outcomes you can answer with include only these: label 1 for active, label 0 for inactive

{"columns": ["COMPOUND", "QUALITATIVE LABEL"],
 "data": [
  ["Cc1cccc([N+](=O)[O-])c1C", "label 0"],
  ["CCCCCCCCCCCC(=O)OC", "label 0"],
  ["CNC(=O)[C@H]1O[C@@H](n2cnc3c(NCc4cc(Cl)ccc4OCc4cc(C)no4)ncnc32)[C@H](O)[C@@H]1N", "label 0"],
  ["COc1ccc(S(=O)(=O)N2C(=O)[C@@](c3ccccc3OC)(N3C[C@H](O)C[C@H]3C(=O)N(C)C)c3cc(Cl)ccc32)c(OC)c1", "label 1"],
  ["Cc1cc(=O)[nH]c(=S)[nH]1", "label 0"]
]}

Could you please tell me the result logged for `O=c1[nH]cc(F)c(=O)[nH]1` in this assay?
label 0

Could you please tell me the result logged for `O=c1c(O)c(-c2ccc(O)c(O)c2)oc2cc(O)cc(O)c12` in this assay?
label 0

Could you please tell me the result logged for `CCCCCCCCCCC` in this assay?
label 0

Could you please tell me the result logged for `CC(=O)OCCOCCOCCOC(C)=O` in this assay?
label 0

Could you please tell me the result logged for `O=C(O)CCCCC(=O)O` in this assay?
label 0

Could you please tell me the result logged for CC(=O)C(C)=CC1C(C)=CCCC1(C)C (configuration not stated) in this assay?
label 0
